B1: Peroxisome proliferator-activated receptor delta, residues 71 to 145; numbered along this chain, Q03181 (parent)
chain: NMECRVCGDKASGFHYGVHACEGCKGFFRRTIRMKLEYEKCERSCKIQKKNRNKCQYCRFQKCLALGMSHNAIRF

- Variants of: B1
- Assay: abundance fitness (aPCA) (normalised: wild type 0, dead -1); higher = more abundant; growth selection in yeast, the domain comes from the species named
- Condition details: Homo sapiens
Provide the reported abundance fitness of each item.
Number only, please.

Challenge: I have this variant here, `K54M` , and I need its recorded abundance fitness.
Response given: 0.052

Challenge: Would you mind telling me what abundance fitness value was observed for `A11D` ?
Response given: -0.237

Challenge: I'd like to know its abundance fitness. The variant in question is `E39P`
Response given: 0.072

Challenge: # get_value(readout='abundance fitness', item= `K62P` )
Response given: -0.824

Challenge: I would be grateful if you could share the reported abundance fitness for `K46C` .
Response given: -0.046

Challenge: Requested field: abundance fitness. Item: `G23F`
Response given: -0.001

Challenge: // abundance fitness lookup, key: `R29I`
Response given: 0.132

Challenge: What measured abundance fitness goes with `G23R` ?
Response given: -0.179

Challenge: Which abundance fitness is listed for `F60T` ?
Response given: -0.549

Challenge: Requested field: abundance fitness. Item: `N71Y`
Response given: -0.337

Challenge: Quick one: abundance fitness for `Q56L` ?
Response given: -0.031
